- System: PPARg:RXRa IVT, anti-PPARg (NR concentration 270 nM, RXRa partner concentration 90 nM)
- MEASUREMENT DESCRIPTION: PBM binding z-score (relative to random genomic background probes); higher = stronger binding; sequences stand for … in GC…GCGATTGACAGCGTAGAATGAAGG
Recorded measurements of PBM binding z-score, one per entry

{"SEQUENCE INPUT": "GGAACGCGGGCAAAGTTGATAGCATCTGTCGACG", "PBM binding z-score": 0.502}
{"SEQUENCE INPUT": "TTTCAAAGTTCAAAGGTAACGTAAGTATCCACAC", "PBM binding z-score": 2.61}
{"SEQUENCE INPUT": "CCTAGCAGGCCAGGGTTACTCAAGCATTTCGCTT", "PBM binding z-score": -0.137}
{"SEQUENCE INPUT": "ATCGACAGGTCGACGAGGTGAGTATACACCGTTT", "PBM binding z-score": 0.929}
{"SEQUENCE INPUT": "CGTCCAAGGTGAAGGTCAGTGAAAGAGACTCGAA", "PBM binding z-score": 2.94}
{"SEQUENCE INPUT": "TCTTGTAGATCAAAGGTTAAGGAAGCCGAAGCCT", "PBM binding z-score": 3.75}
{"SEQUENCE INPUT": "TCTTGTAGATCAATAGAGGTTAAGAACGTGCGCT", "PBM binding z-score": 1.17}
